Where do the numbers come from? From paper PMC11911254.

- Protocol: Concentration of paracetamol and its metabolites in plasma, CSF and brain cortex by LC-MS/MS
- Measurement parameters: both, Sprague Dawley, rat, plasma, intraperitoneal, Concentration in plasma, P4 rats; 30 min after ip paracetamol 15 mg/kg + lamotrigine 6 mg/kg (PARA+LTG, n=5); median (IQR)
Outcome measure: concentration at 30 min
Field: value (include unit after the number)

Q: Tell us which concentration at 30 min value is on record for CC(=O)Nc1ccc(O)cc1 [Paracetamol, reference compound]
Result: 7200 ng/mL

###

- Protocol: Concentration of paracetamol and its metabolites in plasma, CSF and brain cortex by LC-MS/MS
- Measurement parameters: both, Sprague Dawley, rat, plasma, intraperitoneal, 15 mg/kg, Concentration in plasma, P4 rats; 30 min after ip paracetamol 15 mg/kg monotherapy (PARA, n=4); median (IQR)
Outcome measure: concentration at 30 min (µg/mL)
State just the number; it will be interpreted in µg/mL.

Q: Tell us which concentration at 30 min value is on record for CC(=O)Nc1ccc(O)cc1 [Paracetamol, reference compound]
Result: 5.6

###

- Protocol: Concentration of paracetamol and its metabolites in plasma, CSF and brain cortex by LC-MS/MS
- Measurement parameters: female, Sprague Dawley, rat, CSF, intraperitoneal, Concentration in CSF, non-pregnant adult rats; 30 min after ip paracetamol 15 mg/kg + valproate 30 mg/kg (PARA+VPA, n=3); median (IQR)
Outcome measure: concentration at 30 min
Field: value (include unit after the number)

Q: Tell us which concentration at 30 min value is on record for CC(=O)Nc1ccc(O)cc1 [Paracetamol, reference compound]
Result: 4700 ng/mL

###

- Protocol: Concentration of paracetamol and its metabolites in plasma, CSF and brain cortex by LC-MS/MS
- Measurement parameters: both, Sprague Dawley, rat, plasma, intraperitoneal, Concentration in plasma, P4 rats; 30 min after ip paracetamol 15 mg/kg + lithium 3.2 mg/kg (PARA+Li, n=4); median (IQR)
Outcome measure: concentration at 30 min
Field: value (include unit after the number)

Q: Tell us which concentration at 30 min value is on record for CC(=O)Nc1ccc(O)cc1 [Paracetamol, reference compound]
Result: 4300 ng/mL

###

- Protocol: Concentration of paracetamol and its metabolites in plasma, CSF and brain cortex by LC-MS/MS
- Measurement parameters: female, Sprague Dawley, rat, CSF, intraperitoneal, Concentration in CSF, non-pregnant adult rats; 30 min after ip paracetamol 15 mg/kg + fluvoxamine 1.5 mg/kg (PARA+FLX, n=4); median (IQR)
Outcome measure: concentration at 30 min (ng/mL)
State just the number; it will be interpreted in ng/mL.

Q: Tell us which concentration at 30 min value is on record for CC(=O)Nc1ccc(O)cc1 [Paracetamol, reference compound]
Result: 4400

###

- Protocol: Concentration of paracetamol and its metabolites in plasma, CSF and brain cortex by LC-MS/MS
- Measurement parameters: both, Sprague Dawley, rat, CSF, intraperitoneal, Concentration in CSF, P4 rats; 30 min after ip paracetamol 15 mg/kg + cimetidine 11 mg/kg (PARA+CIM, n=4); median (IQR)
Outcome measure: concentration at 30 min
Field: value (include unit after the number)

Q: Tell us which concentration at 30 min value is on record for CC(=O)Nc1ccc(O)cc1 [Paracetamol, reference compound]
Result: 6200 ng/mL
